- ASSAY_METHOD_TEXT: NOVARTIS: Cytotoxicity against human hepatocellular carcinoma cell line (Huh7)
- Type: toxicity, cell-based, Huh-7
- CONDITION_LABEL: Huh7 cells (hepatocellular carcinoma cell line)
RESULT_TYPE: CC50

Request: If you can, please state the reported CC50 value of COc1ccc(C2=Nc3cc(C(=O)NCCN4CCOCC4)ccc3CN2C(C)C)cc1 .
Result: > 100 µM

Request: Again, but for COCCOC(=O)C1=C(C)NC2=C(C(=O)CC(c3ccc(OC)cc3)C2)C1c1ccc(Cl)cc1 (stereo not given)
Result: > 100 µM

Request: Again, but for O=c1c([N+](=O)[O-])cccn1Cc1ccc(F)cc1Cl
Result: > 100 µM

Request: Again, but for CC(C)c1cccc(C(C)C)c1NC(=O)N(Cc1ccccc1)C(C)c1nc2ccccc2c(=O)n1-c1ccc(Br)cc1 (stereo not given)
Result: > 10 µM

Request: Again, but for Cc1nonc1C(=O)NN=Cc1ccc([N+](=O)[O-])o1
Result: 49.3 µM

====

- ASSAY_METHOD_TEXT: NOVARTIS: Cytotoxicity against human hepatocellular carcinoma cell line (Huh7)
- Format: toxicity, cell-based, Huh-7
- CONDITION_LABEL: Huh7 cells (hepatocellular carcinoma cell line)
Known CC50 of a selection of molecules

Examples with answers:
MOLECULE: O=C1N(Cc2cc3ccccc3s2)CC2CN(Cc3ccccc3)CCN12 (stereo unspecified)
CC50: > 10 µM

MOLECULE: O=C(CCCCCN1C(=O)c2cccc3cccc(c23)C1=O)NO
CC50: 3.32 µM

MOLECULE: COc1cccc(OC)c1C(=O)NCCCCNc1ccnc2cc(Cl)ccc12
CC50: > 12.2 µM

MOLECULE: COc1ccc(C2CC(=O)C3=C(C2)NC(C)=C(C(=O)OC2CCCC2)C3c2ccccc2Cl)cc1OC (stereo unspecified)
CC50: > 100 µM

Next up:
Request: If you can, please state the reported CC50 value of O=C(Nc1ccc(C(F)(F)F)cc1)c1cc(S(=O)(=O)NC2CCCCCC2)ccc1F .
Result: 17.7 µM

====

- ASSAY_METHOD_TEXT: NOVARTIS: Cytotoxicity against human hepatocellular carcinoma cell line (Huh7)
- Type: toxicity, cell-based, Huh-7
- CONDITION_LABEL: Huh7 cells (hepatocellular carcinoma cell line)
RESULT_TYPE: CC50

Examples with answers:
COMPOUND: CCCCCCCn1c2c(c(=N)c3c1CCC3)CCCC2
CC50: 2.73 µM
//
COMPOUND: O=C(C1CC=CCC1)N1CCCC(c2ncncc2-c2ccncc2)C1 (stereo unspecified)
CC50: > 10 µM
//
COMPOUND: CC1CN(C(=O)C(Cl)(Cl)Cl)C(C)CN1C(=O)C(Cl)(Cl)Cl (stereo unspecified)
CC50: > 100 µM
//
COMPOUND: CN1c2ccccc2N(C)C1c1ccc2c(c1)OCO2
CC50: > 10 µM
//
COMPOUND: COc1cc(NC(C)CCCN(Cc2ccc(F)cc2)C(=O)C(C)(C)CCl)c2ncccc2c1 (stereo unspecified)
CC50: > 1.83 µM

Next up:
Request: If you can, please state the reported CC50 value of CC(C)CN(C(C(=O)NC(CN1CCCC1)c1ccccc1)c1ccccc1)S(=O)(=O)c1ccccn1 (stereo unspecified) .
Result: > 10 µM
